test.target: human CXCR3 (N-delta 4) (Homo sapiens)
Construct: CD8 leader (N); Flag tag; expressed in transfected cells; membrane preparation
Sequence (P49682 5-368 limits assumed): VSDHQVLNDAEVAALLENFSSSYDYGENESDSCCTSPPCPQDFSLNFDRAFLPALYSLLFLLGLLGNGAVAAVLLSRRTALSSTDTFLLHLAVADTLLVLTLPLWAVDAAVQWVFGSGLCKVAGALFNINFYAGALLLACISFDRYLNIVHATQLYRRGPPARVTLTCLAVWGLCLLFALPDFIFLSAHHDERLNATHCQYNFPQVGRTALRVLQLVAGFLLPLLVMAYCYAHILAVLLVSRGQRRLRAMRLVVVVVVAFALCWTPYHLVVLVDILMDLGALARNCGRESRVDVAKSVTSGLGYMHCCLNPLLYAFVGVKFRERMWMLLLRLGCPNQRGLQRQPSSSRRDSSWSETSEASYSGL
assay: Human CXCR3 (N-delta 4) scintillation proximity assay (SPA), [125I] IP-10 binding to Ba/F3-hCXCR3 membranes
experimental.context: IC50 rating; [125I] IP-10 displacement, human CXCR3; read-out: IC50
Reported IC50 is given for each of the following compounds.

The measured IC50 associated with CC[C@H]1CN(c2ncc(NC3=NS(=O)(=O)N=C3N(C)C)cc2Cl)CCN1C1CCN(Cc2ccc(Cl)cc2F)CC1 reads < 25 nM

IC50 for CC(C)C1CCC(N2CCC(N3C[C@H](C)N(c4ncc(Nc5c(NCC(F)(F)F)c(=O)c5=O)cc4Cl)C[C@H]3C)CC2)CC1 (stereo partly shown) [Compound 127] is > 100 nM

// IC50 lookup, compound = CC[C@H]1CN(c2ncc(NS(C)(=O)=O)cc2Cl)CCN1C1CCN(Cc2cc3ccccc3o2)CC1 , result: > 100 nM

The measured IC50 associated with CC[C@H]1CN(c2ncc(NC(=O)C(C)C)cc2Cl)CCN1C1CCN(Cc2ccc(Cl)cc2F)CC1 reads < 25 nM

Recorded IC50 (compound CC[C@H]1CN(c2ncc(NC(N)=O)cc2Cl)CCN1C1CCN(Cc2ccc(Cl)cc2F)CC1 ): 25 to 100 nM

Sure, the documented IC50 for CC[C@H]1CN(c2cc(N)c(N)cc2Cl)CCN1C1CCN(Cc2ccc(Cl)cc2F)CC1 is > 100 nM

Then this compound:
Sample C[C@H]1CN(c2ncc(NS(C)(=O)=O)cc2Cl)CCN1C1CCN(Cc2ccc(OC(F)(F)F)cc2)CC1 ; IC50 observed: 25 to 100 nM

---

test.target: human CXCR3 (N-delta 4) (Homo sapiens)
Construct: CD8 leader (N); Flag tag; expressed in transfected cells; membrane preparation
assay: Human CXCR3 (N-delta 4) scintillation proximity assay (SPA), [125I] IP-10 binding to Ba/F3-hCXCR3 membranes
experimental.context: IC50 rating; [125I] IP-10 displacement, human CXCR3; read-out: IC50
pIC50: −log10 of the molar value.
value.type: pIC50

Record excerpt, results attached:
# pIC50 of CC[C@H]1CN(c2ncc(NC3=NS(=O)(=O)N=C3N3CCC3)cc2Cl)CCN1C1CCN(Cc2ccc(F)c(F)c2)CC1 [Compound 268] = < 7.00

Record CC1CCCC(N2CCC(N3C[C@H](C)N(c4ncc(Nc5c(NCC(F)(F)F)c(=O)c5=O)cc4Cl)C[C@H]3C)CC2)C1 (stereo partly drawn) [Compound 176] . Reported pIC50: < 7.00

Lab book: pIC50 of Cc1cc(Nc2c(NCC(F)(F)F)c(=O)c2=O)cnc1N1C[C@@H](C)N(C2CCN(C(=O)c3ccc(Cl)cc3)CC2)C[C@@H]1C [Compound 141] noted as < 7.00

For CCNC(=O)Nc1cnc(N2CCN(C3CCN(Cc4ccc(Cl)cc4)CC3)[C@@H](C)C2)c(Cl)c1 [Compound 190] the compound record lists pIC50 as 7.00 to 7.60

Sure, the documented pIC50 for C[C@@H]1CN(C2CCN(Cc3ccc(Cl)cc3F)CC2)[C@@H](C)CN1c1ncc([N+](=O)[O-])cc1Cl [Compound 217] is < 7.00

Measured pIC50, C[C@H]1CN(c2ncc(NC(=O)c3cccnc3)cc2Cl)CCN1C1CCN(Cc2ccc(Cl)cc2)CC1 [Compound 196] : < 7.00

The measured pIC50 associated with CC[C@H]1CN(c2ncc(NC3=NS(=O)(=O)N=C3NC3CC3)cc2Cl)CCN1C1CCN(Cc2ccc(Cl)cc2F)CC1 [Compound 235] reads > 7.60

Reported pIC50 for C[C@@H]1CN(c2ncc(Nc3c(NCC(F)(F)F)c(=O)c3=O)cc2Cl)[C@@H](C)CN1C1CCN(Cc2ccc(C#Cc3ccccc3)cc2)CC1 [Compound 126] was < 7.00

Input C[C@H]1CN(c2ncc(NC(=O)NCc3ccccc3)cc2Cl)CCN1C1CCN(Cc2ccc(Cl)cc2)CC1 [Compound 198] . Output pIC50: < 7.00

pIC50 reading for CC[C@H]1CN(c2ncc(NS(=O)(=O)N(C)C)cc2Cl)CCN1C1CCN(Cc2ccc(Cl)cc2F)CC1 [Compound 17] : > 7.60

New cases:
Data point: CC[C@H]1CN(c2ncc(NS(C)(=O)=O)cc2Cl)CCN1C1CCN(Cc2ccc(Cl)cc2F)CC1 [Compound 7] ; pIC50 = > 7.60

Note to self: pIC50 recorded for CC[C@H]1CN(c2ncc(NS(C)(=O)=O)cc2Cl)CCN1C1CCN(C(=O)c2ccc(Cl)cc2O)CC1 [Compound 62] was < 7.00

Quick note, pIC50 for CC[C@H]1CN(c2ncc(Nc3c(NC4CCC4)c(=O)c3=O)cc2Cl)CCN1C1CCN(C(=O)c2ccc(Cl)cc2)CC1 [Compound 107] landed at 7.00 to 7.60

The value of pIC50 measured for the compound CC[C@H]1CN(c2ncc(NS(C)(=O)=O)cc2Cl)CCN1C1CCN(Cc2ccc(Br)cc2F)CC1 [Compound 8] turned out to be > 7.60

Entry C[C@@H]1CN(c2ncc(Nc3c(NCC(F)(F)F)c(=O)c3=O)cc2Cl)[C@@H](C)CN1C1CCN(Cc2cc(Cl)cc(Cl)c2)CC1 [Compound 159] , pIC50 reported as < 7.00

Record CC[C@H]1CN(c2ncc(N(C)c3c(NC4CC4)c(=O)c3=O)cc2Cl)CCN1C1CCN([C@H](C(N)=O)c2ccc(Cl)cc2)CC1 [Compound 112] , field pIC50: 7.00 to 7.60

The recorded pIC50 for CC[C@H]1CN(c2ncc(NC3=NS(=O)(=O)N=C3N3CCC3)cc2Cl)CCN1C1CCN(Cc2ccc(Cl)cc2F)CC1 [Compound 254] is > 7.60

compound C[C@H]1CN(c2ncc(N)cc2Cl)CCN1C1CCN(Cc2ccc(Cl)cc2)CC1 [Compound 218] , pIC50 observed: < 7.00

Data point: CC[C@H]1CN(c2ncc(Nc3c(NC4CC4)c(=O)c3=O)cc2Cl)CCN1C1CCN(Cc2ccc(Cl)cc2F)CC1 [Compound 73] ; pIC50 = > 7.60

The compound identified as C[C@@H]1CN(c2ncc(Nc3c(NCC(F)(F)F)c(=O)c3=O)cc2Cl)[C@@H](C)CN1C1CCN(C2CCCC(C(F)(F)F)C2)CC1 (stereo partly drawn) [Compound 145] registered its pIC50 at < 7.00

What the record says about CC[C@H]1CN(c2ncc([N+](=O)[O-])cc2Cl)CCN1C1CCN(Cc2ccc(Cl)cc2-c2nnc(Br)[nH]2)CC1 [Compound 230] : pIC50 is < 7.00
